# ASSAY SUMMARY: probe aDKK1 binding to arrayed compounds – biochemical, biotinylated probe, 635/667 nm fluorescence, primary screen (AID 1099);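 note: score merges 667nm spot fluorescence with signal to noise across triplicate slides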
# CONDITIONS USED: small-molecule microarray, higher = more signal
ATTRIBUTE MEASURED: composite z-score
Answer with the value's number alone.

Look over these answered cases.
[[record]]
molecule = "CC1CC/C=C\\[C@H]2OC34C=CCN(C(C)C)C(=O)[C@H]3N(CCO)C(=O)[C@@H]4C2C(=O)O1 (some centres undefined)"
experimental_result = -0.163

[[record]]
molecule = "CC(C)[Si](C#CCCCC#N)(O[C@H](c1ccccc1)c1cn(Cc2ccccc2)nn1)C(C)C"
experimental_result = -0.17

[[record]]
molecule = "C=CCC(OC(C)=O)[C@@H]1[C@@H](N(Cc2cccc3ccccc23)C(=O)Cc2ccc(F)cc2)c2cc(OCCCO)ccc2N1C(=O)c1ccc2ccccc2c1 (some centres undefined)"
experimental_result = -0.469


query: Query: composite z-score; subject: CCC1=C2CN(Cc3ccccc3)[C@@H](C(=O)Cc3ccccc3)C2C=CCC1 (some centres undefined)
result: -0.0616

---

# Tested on: Lefty1
# ASSAY SUMMARY: Lefty1 protein binding to printed compounds – biochemical, small-molecule microarray, 635/667 nm fluorescence, primary screen (AID 1139)
# CONDITIONS USED: fluorescence 635/667, higher = more signal
Assign class by composite z-score: not lower than 0.6 means yes (1); lower than 0.6 means no (0).

Completed entries (count: 5):
[[record]]
compound = "[N-]=[N+]=Nc1ccccc1C[C@]1(C(=O)N2CCOCC2)COC(c2ccc(OCCCO)cc2)=N1"
category_label = "no (0)"

[[record]]
compound = "C=CCOC(=O)[C@@]1(Cc2ccccc2)C[C@H]2CO[C@H](c3ccc(OC)cc3)N2C1=O"
category_label = "no (0)"

[[record]]
compound = "O=C1O[C@@H](c2ccccc2)[C@@H](c2ccccc2)N2[C@@H](c3ccc(OCCO)cc3)[C@]3(C(=O)Nc4ccc(C#CC5=CCCCC5)cc43)[C@@H](C(=O)NC[C@H](O)c3ccccc3)[C@H]12"
category_label = "yes (1)"

[[record]]
compound = "CS(=O)(=O)CCOC(=O)C1=CC(c2ccc(CO)cc2)=CC(C2CC2)N(Cc2sc3ccccc3c2Cl)C=C1C(=O)OCCS(C)(=O)=O (centres undefined)"
category_label = "yes (1)"

[[record]]
compound = "CCCCC(=C=CC[C@H](O)c1ccc(OCCO)cc1)CCO"
category_label = "no (0)"


query: Item `C=C[C@@H](OC)[C@H](OC(=O)Nc1ccc(OC)cc1)c1ccc(O)c(F)c1` with composite z-score of 0.6 or above?
result: yes (1)

---

# SYSTEM UNDER TEST: Left-right determination factor 2 (Homo sapiens)
# ASSAY SUMMARY: small molecules binding LEFTY2 protein – biochemical, small-molecule microarray, 635 nm fluorescence scan, primary screen (AID 1110)
# CONDITIONS USED: higher = more signal
Parameter composite z-score: see the listing below.
Answer with the value's number alone.

Look over these answered cases.
[[record]]
compound = "COC(=O)[C@@]1(Cc2ccc(OC)cc2)[C@H]2c3cc(C(=O)N4CCCC4)n(CCc4c[nH]c5ccc(O)cc45)c3C[C@H]2CN1C(=O)c1ccccc1"
experimental_result = 0.148

[[record]]
compound = "C=CCC(OC(C)=O)[C@@H]1[C@@H](N(Cc2cc3ccccc3o2)C(=O)Cc2ccc(F)cc2)c2cc(OCCCO)ccc2N1C(=O)Cc1ccc2ccccc2c1 (some centres undefined)"
experimental_result = -0.537

[[record]]
compound = "COc1cc2c(cc1O)C(C1CC1)N(C)CC2 (centres undefined)"
experimental_result = -0.893

[[record]]
compound = "COCC(=C=CC[C@H](O)c1ccccc1OCCO)C[C@H](O)c1ccccn1"
experimental_result = 0.155


query: Query: composite z-score; subject: CC1CC/C=C\[C@H]2OC34C=CCN(C(C)(C)C)C(=O)[C@H]3N(CCCCCO)C(=O)[C@@H]4C2C(=O)O1 (some centres undefined)
result: -0.464

query: Query: composite z-score; subject: `C[N+](C)(C)CCCC[C@@H]1NC(=O)[C@@H]2C[C@H](C(=O)NCCCCCCN)[C@H](c3cccc(OCCO)c3)N2C1=O`
result: 0.676

query: Query: composite z-score; subject: `COC(=O)[C@@]1(Cc2ccccc2)[C@H]2c3cc(C(=O)N4CCCC4)n(CCc4ccccn4)c3C[C@H]2CN1C(=O)c1ccccc1`
result: -0.204

query: Query: composite z-score; subject: `NC(=O)[C@@]1(Cc2ccccc2)COC(c2ccc(OCCCO)cc2)=N1`
result: -0.263

query: Query: composite z-score; subject: CCCCC(CC)C(O)C1C=CC2C(=O)N(c3ccccc3)C(=O)C2N1Nc1ccccc1F (centres undefined)
result: -0.285

---

# SYSTEM UNDER TEST: Concanavalin-A (Canavalia ensiformis) (UniProt P02866)
# Sequence (P02866 whole entry, looked up): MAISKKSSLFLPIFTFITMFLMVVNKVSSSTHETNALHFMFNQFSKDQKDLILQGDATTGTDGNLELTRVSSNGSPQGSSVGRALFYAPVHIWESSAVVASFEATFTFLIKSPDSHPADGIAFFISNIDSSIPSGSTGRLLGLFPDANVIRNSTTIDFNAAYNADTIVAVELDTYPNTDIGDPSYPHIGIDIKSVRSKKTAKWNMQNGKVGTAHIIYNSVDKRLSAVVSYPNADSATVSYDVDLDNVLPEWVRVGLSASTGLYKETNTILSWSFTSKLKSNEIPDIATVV
# ASSAY SUMMARY: compounds binding concanavalin A lectin – biochemical, small-molecule microarray, Alexa647 label, 635 nm, artefact control for SMM control protein annotation, primary screen (AID 1127);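 note: z combines 667 nm emission intensity with signal-to-noise across three replicate slides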
# CONDITIONS USED: ConA-A647 binding fluorescence, higher = more signal
ATTRIBUTE MEASURED: composite z-score
Answer with the value's number alone.

query: Query: composite z-score; subject: `COc1ccc([Si](C)(C)[C@H]2[C@H](CC(=O)N3Cc4ccccc4C[C@H]3CO)O[C@@]3(C(=O)N(Cc4ccc(N5CCOC5=O)cc4)c4ccccc43)[C@@H]2C)cc1`
result: 1.05

---

# System: Sonic hedgehog protein (Shh)
# ASSAY SUMMARY: Sonic hedgehog microarray binding compounds – biochemical, small-molecule microarray, 635/667 nm fluorescence, primary screen (AID 1151);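 note: Shh protein binding to compounds spotted on small-molecule microarray slides; score combines spot fluorescence intensity with signal-to-noise across triplicate slides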
# CONDITIONS USED: 635 nm fluorescence, higher = more signal
ATTRIBUTE MEASURED: composite z-score

Look over these answered cases.
[[record]]
molecule = "COc1ccc([Si](C)(C)[C@@H]2[C@@H](CCO)O[C@]3(C(=O)N(Cc4cccc(NC(=O)[C@H](C)O)c4)c4ccccc43)[C@H]2C)cc1"
experimental_result = 0.533

[[record]]
molecule = "C=CCC(OC(C)=O)[C@@H]1[C@@H](N(Cc2ccc(-c3ccccc3)cc2)C(=O)c2ccc(-c3ccccc3)cc2)c2cc(OCCCO)ccc2N1C(=O)c1ccc2ccccc2c1 (some centres undefined)"
experimental_result = 0.255

[[record]]
molecule = "COCCOC(=O)N1C(=O)[C@@]2(c3cc(C#CC4(O)CCCCCC4)ccc31)[C@H](C(=O)N1CCc3cc(OC)c(OC)cc3C1)[C@H]1C(=O)O[C@H](c3ccccc3)[C@H](c3ccccc3)N1[C@@H]2c1ccc(OCCO)cc1"
experimental_result = 1.58

[[record]]
molecule = "COc1cccc(C)c1NC(=O)O[C@H]1[C@H](OC(=O)Nc2ccc3c(c2)OCO3)[C@@H](OC(=O)Nc2ccc3c(c2)OCO3)[C@@H](OC)O[C@@H]1CO"
experimental_result = 1.54


query: Query: composite z-score; subject: `CCC#CCN(Cc1ccccc1Br)[C@H](/C=C/C1CC1)[C@@H](O)Cc1ccccc1`
result: -0.643

query: Query: composite z-score; subject: `CN(C)C(=O)[C@]1(Cc2ccccc2CN=[N+]=[N-])N=C(c2ccc(OCCCO)cc2)O[C@@H]1c1ccccc1`
result: -0.18

query: Query: composite z-score; subject: `C=CC[C@H](OC(=O)Nc1ccc(SC)cc1)c1ccc(O)c2ccccc12`
result: 1.76

query: Query: composite z-score; subject: `CC1=C2[C@@H](CCc3ccccc3)OB(O)C[C@@H]2[C@@H]2C(=O)N(Cc3ccccc3)C(=O)[C@@H]2C1`
result: 0.792

---

# ASSAY SUMMARY: JC-1 mitochondrial signal, unstimulated MM1S myeloma – cell-based, JC-1 fluorescence, 24 h, 100 nL compound, profiling panel (AID 1170); note: test concentration not given here
# CONDITIONS USED: MM1S mitochondrial potential, higher = more signal
Parameter z-score: see the listing below.
Answer with the value's number alone.

[[record]]
compound = "CC(CO)N1C(=O)[C@@H]2[C@H]3C(=O)OCC=C[C@H]3OC23C=CCN(Cn2nnc4ccccc42)C(=O)[C@@H]13 (some centres not stated)"
experimental_result = -0.226


query: Query: z-score; subject: O=C(C1N=C(c2ccc(OCCCO)cc2)N(c2ccccc2)O1)N1CCCCC1 (configuration not stated)
result: -0.313

query: Query: z-score; subject: `O=C1O[C@H](c2ccccc2)[C@H](c2ccccc2)N2[C@H]1[C@@H](C(=O)O)[C@]1(C(=O)Nc3ccc(C#CCCO)cc31)[C@H]2c1ccccc1OCCO`
result: 0.884

query: Query: z-score; subject: `C=CC[C@@]1(C(=O)NCCCOC)N=C(c2ccc(OCCCO)cc2)O[C@@H]1c1ccccc1N=[N+]=[N-]`
result: -0.917

query: Query: z-score; subject: `COC(=O)C(CC#Cc1ccc2c(c1)[C@]1(C(=O)N2)[C@H](c2ccc(O)cc2)N2[C@H](c3ccccc3)[C@H](c3ccccc3)OC(=O)[C@H]2[C@@H]1C(=O)NC[C@H](O)c1ccccc1)C(=O)OC`
result: -0.633

query: Query: z-score; subject: `CCC#CCN(Cc1ccccc1Br)[C@H](/C=C/C1CC1)[C@@H](O)Cc1ccccc1`
result: -1.39

query: Query: z-score; subject: `CC(=O)NCCCC[C@@H]1NC(=O)[C@@H]2C[C@H](C(=O)NCCCCCN)[C@H](c3cccc(OCCO)c3)N2C1=O`
result: -0.0434

query: Query: z-score; subject: CC1CC/C=C\[C@H]2OC34C=CCN(C(C)(C)C)C(=O)[C@H]3N(CCCCCO)C(=O)[C@@H]4C2C(=O)O1 (some centres not stated)
result: -0.203

query: Query: z-score; subject: `COC(=O)[C@@]1(Cc2ccc(OC)cc2)[C@H]2c3cc(C(=O)N(C)C)n(Cc4ccc(OC(F)(F)F)cc4)c3C[C@H]2CN1C(=O)c1ccccc1`
result: -2.79

query: Query: z-score; subject: `COc1ccc(CCNC(=O)[C@@H]2c3ccccc3C(=O)N(C3CCCCC3)[C@H]2c2ccc(CO)cc2)cc1`
result: 0.337

query: Query: z-score; subject: `COc1ccc([Si](C)(C)[C@@H]2[C@@H](CC(=O)N3CCC[C@H]3CO)O[C@]3(C(=O)N(Cc4cccc(N5C(=O)COc6ccccc65)c4)c4ccccc43)[C@H]2C)cc1`
result: -2

query: Query: z-score; subject: `O=C1[C@H]2C=C(I)[C@H](C[C@@H]2OCCOCCO)[C@@]12CO2`
result: -0.807

query: Query: z-score; subject: O=C(Cc1ccccc1)[C@H]1C2C=CCCC(c3ccccc3)=C2CN1Cc1ccccc1 (some centres not stated)
result: 0.584

query: Query: z-score; subject: COC(=O)C1(CC(C)C)C=C2C(=C(c3ccccc3)C(=O)C2C)CN1 (configuration not stated)
result: -1.1

query: Query: z-score; subject: `C=CCOC(=O)[C@@H]1[C@H]2C(=O)O[C@H](c3ccccc3)[C@H](c3ccccc3)N2[C@H](c2ccc(OCCOC(=O)[C@@H]3C[C@@H]4C(=O)N[C@@H](CCCC[N+](C)(C)C)C(=O)N4[C@@H]3c3ccc(O)cc3)cc2)[C@@]12C(=O)Nc1ccc(I)cc12`
result: -1.1

query: Query: z-score; subject: `COc1cc2c(cc1O)C=[N+](Cc1sc3ccccc3c1Cl)CC2`
result: -0.598

query: Query: z-score; subject: `CC(C)[Si]1(C(C)C)OCc2cc(-c3ccc(-c4ccc(Cl)c(Cl)c4)o3)nc(-c3ccccc3)c21`
result: 0.406

Attribution: PubChem BioAssay
